TARGET OR SYSTEM: CDK2/CyclinA2 (Homo sapiens, UniProt P24941)
Construct: Wild-type, full length CDK2 in complex with wildtype, full length CyclinA2: Carna Cat #04-103; purchased Carna 04-103
TEST DETAILS: CDK2/Cyclin A2 Mobility Shift Assay (Caliper, Table B)
Assay type: biochemical
CONDITIONS USED: Caliper, selectivity over CDK1/B1
OUTCOME MEASURE: CDK2/CCNA2 Caliper 10xKm Ki: CDK2/A2 Selectivity over CDK1/B1

input_smiles=O=C1NCC=CCNS(=O)(=O)c2ccc(c(F)c2)Nc2cc([nH]n2)[C@H]2CC[C@H](C2)O1 reading="A (A>10)"
input_smiles=O=C1NCCOCCNS(=O)(=O)c2ccc(c(F)c2)Nc2cc([nH]n2)[C@H]2CC[C@H](C2)O1 reading="A (A>10)"
input_smiles=O=C1NCCCCCOc2cccc(n2)Nc2ncc(cn2)[C@@H]2CC[C@@H](C2)O1 reading="B (5≤B<10)"
input_smiles=O=C1NCCCCCCOc2cccc(n2)Nc2ncc(cn2)[C@@H]2CC[C@@H](C2)O1 reading="B (5≤B<10)"
input_smiles=O=C1NCCCCNS(=O)(=O)c2ccc(c(F)c2)Nc2cc([nH]n2)[C@H]2CC[C@H](C2)O1 reading="A (A>10)"
input_smiles=O=C1NCCCCCCNS(=O)(=O)c2ccc(c(F)c2)Nc2cc([nH]n2)[C@H]2CC[C@H](C2)O1 reading="A (A>10)"
input_smiles=CN1CCNC(=O)O[C@@H]2CC[C@@H](C2)c2cc(n[nH]2)Nc2ccc(cc2F)S(=O)(=O)NCC1 reading="A (A>10)"
input_smiles=O=C1NCCCCCCNS(=O)(=O)c2ccc(cc2)Nc2ncc(cn2)[C@@H]2CC[C@@H](C2)O1 reading="B (5≤B<10)"
input_smiles=CC1(C)CCCNS(=O)(=O)c2ccc(c(F)c2)Nc2cc([nH]n2)[C@H]2CC[C@H](C2)OC(=O)N1 reading="A (A>10)"
